target: 5-HT2A receptor (Homo sapiens); construct: expressed in transfected cells; host or cells: HEK293T; assay: 5-HT2A Gq dissociation BRET functional assay; type: cell-based; conditions: EC50 BRET 2A, Table 4; unit inferred
pEC50: −log10 of the molar value.
Listing of recorded pEC50 by entry.
reported-metric: pEC50

>>> result_number("COc1cc(C#N)ccc1CCNCc1cccc2c1CCO2 [Cpd #63]")
6.87
>>> result_number("Oc1cc(Cl)ccc1CCNCc1ccccc1O [Cpd #131]")
8.68
>>> result_number("COc1cc(C#N)c(F)cc1CCNCc1ccccc1O [Cpd #117]")
8.42
>>> result_number("CSc1ccc(CCNCc2ccccc2O)c(O)c1 [Cpd #122]")
8.85
>>> result_number("COc1cc(C#N)ccc1CCNCc1ccccc1OC [Cpd #27]")
8.38
>>> result_number("COc1cccc(CNCCc2ccc(C#N)cc2OC)c1 [Cpd #28]")
7.08
>>> result_number("COc1cc(C#N)ccc1CCNCc1ccccc1SC [Cpd #108]")
8.62
>>> result_number("COc1cc(C(F)(F)F)ccc1CCNCc1ccccc1O [Cpd #93]")
8.92
>>> result_number("COc1cc(C#N)ccc1CCNCc1ccccc1Cl [Cpd #12]")
6.99
>>> result_number("COc1cc(C#N)ccc1CCNCc1cccc2c1OCO2 [Cpd #65]")
7.71

---

test: in vitro hepatocyte clearance, mouse; assay type: in vitro ADME; conditions: Mouse hepatocytes; read-out: In vitro Clint (μL/min/10^6 cells)
hepatocyte CLint: recorded values
reported-metric: hepatocyte CLint

>>> result("CSc1ccccc1CNCCc1ccc(C#N)cc1O")
"> 614 µL/min/1e6 cells"
>>> result("COc1cc(C(F)(F)F)ccc1CCNCc1ccccc1O")
"< 614 µL/min/1e6 cells"

---

target: 5-HT2A receptor (Homo sapiens, UniProt P28223); construct: expressed in transfected cells; host or cells: HEK293T; assay: 5-HT2A Gq dissociation BRET functional assay; assay type: cell-based; conditions: Table 2; normalized to % 5-HT stimulation
Sequence (P28223 whole entry): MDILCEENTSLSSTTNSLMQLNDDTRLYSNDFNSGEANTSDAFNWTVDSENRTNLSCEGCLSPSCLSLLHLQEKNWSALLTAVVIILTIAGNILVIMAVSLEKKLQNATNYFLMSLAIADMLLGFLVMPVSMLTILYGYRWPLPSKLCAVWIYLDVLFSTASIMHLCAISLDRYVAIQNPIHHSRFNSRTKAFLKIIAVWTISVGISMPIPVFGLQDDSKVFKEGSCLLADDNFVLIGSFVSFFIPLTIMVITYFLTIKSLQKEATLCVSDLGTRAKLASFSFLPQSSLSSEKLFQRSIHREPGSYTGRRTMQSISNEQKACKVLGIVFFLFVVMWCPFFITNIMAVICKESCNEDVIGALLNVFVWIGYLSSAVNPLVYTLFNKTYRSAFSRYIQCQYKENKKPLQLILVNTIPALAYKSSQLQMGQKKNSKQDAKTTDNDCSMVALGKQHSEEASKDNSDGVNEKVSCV
Hi, to clarify the labels: Yes covers 5-HT2A BRET Eff % from 60% upward, No covers anything below 60%.

>>> label_value("CSc1ccccc1CNCCc1ccc(O)cc1O")
"Yes"
>>> label_value("N#Cc1cc(O)c(CCNCc2ccccc2O)cc1F")
"Yes"
>>> label_value("COc1cc(-c2cnoc2)ccc1CCNCc1ccccc1Cl")
"Yes"
>>> label_value("CSc1ccccc1CNCCc1ccc(C#N)cc1O")
"Yes"
>>> label_value("COc1cc(C#N)ccc1CCNCc1ccc(Cl)cc1")
"No"

---

target: 5-HT2B receptor (Homo sapiens, UniProt P41595); construct: expressed in transfected cells; host or cells: HEK293T; assay: 5-HT2B Gq dissociation BRET functional assay; type: cell-based; conditions: Table 3 panel; read-out: 5-HT2B EC50
Sequence (P41595 whole entry): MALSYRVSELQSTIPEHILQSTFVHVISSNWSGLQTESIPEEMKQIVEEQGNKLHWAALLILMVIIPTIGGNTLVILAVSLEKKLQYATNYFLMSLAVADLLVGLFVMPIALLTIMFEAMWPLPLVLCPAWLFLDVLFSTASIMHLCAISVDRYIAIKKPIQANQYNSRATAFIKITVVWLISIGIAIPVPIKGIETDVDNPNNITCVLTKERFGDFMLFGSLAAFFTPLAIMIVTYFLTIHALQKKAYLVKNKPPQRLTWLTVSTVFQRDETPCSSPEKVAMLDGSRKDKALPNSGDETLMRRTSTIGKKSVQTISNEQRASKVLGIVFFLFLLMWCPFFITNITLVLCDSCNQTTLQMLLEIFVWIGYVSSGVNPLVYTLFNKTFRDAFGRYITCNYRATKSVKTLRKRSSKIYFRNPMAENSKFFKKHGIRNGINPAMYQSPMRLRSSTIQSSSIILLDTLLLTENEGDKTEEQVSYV
reported-metric: EC50

>>> result("CSc1ccccc1CNCCc1ccc(C#N)cc1O")
"3.09 µM"

---

target: 5-HT1E (Homo sapiens, UniProt P28566); assay: 5-HT receptor activity panel (Table 3); assay type: cell-based; conditions: Table 3; read-out: 5-HT1E EC50
Sequence (P28566 whole entry, species assumed): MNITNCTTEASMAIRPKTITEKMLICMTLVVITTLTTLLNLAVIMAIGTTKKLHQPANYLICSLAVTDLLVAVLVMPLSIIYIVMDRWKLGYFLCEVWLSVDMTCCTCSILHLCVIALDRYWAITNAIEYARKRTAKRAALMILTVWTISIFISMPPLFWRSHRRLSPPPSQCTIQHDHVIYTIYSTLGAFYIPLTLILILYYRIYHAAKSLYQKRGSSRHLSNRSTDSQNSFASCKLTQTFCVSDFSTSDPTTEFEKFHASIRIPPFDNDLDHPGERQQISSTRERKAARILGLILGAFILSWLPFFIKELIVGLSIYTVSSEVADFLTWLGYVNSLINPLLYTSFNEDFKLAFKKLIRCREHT
reported-metric: EC50

>>> result("CSc1ccccc1CNCCc1ccc(C#N)cc1O [Cpd #109]")
"814 nM"

Data origin, for the record: patent US20250074871A1
